molecular target: HIV-1 NL4-3 Env on infected cells (HIV-1 group M subtype B, NL4-3 (pNL4-3 …, strain))

- Binder: "c5338 (antibody, V domains shown) VH: HVRLEQWGPGLLKPSETLSLSCVVHGESFDPYSWTWIRQSPKMGPQWLGEIRPFGETVYNPSLSGRLSLSRDNSKRLISLRLTSVSAADSAVYFCARGPVIYEVPYFWYRGLNVWGPGTTVVVST VL: DVVVTQSPLSVSVTPGESATILCKSSHSLRHDNGMHYLDWYLQKPGQSPQLLIYLSSNRASGVPDRFIGSGSGTDFTLKISRVEAEDVGMYFCMQGRQDPRIFGRGTRLEIK"
  binding result: "binds"
- Binder: "c8567 (antibody, V domains shown) VH: QQQRVETVKHAVDPGSFLIISCPTSGFTFETYAMHWVRQAPGKGLEWVAATSALGEKKYYSNAVKGRFLITRNNSKRTLYLEMSGLKAEDTAVYYCARSQGYCSDFSCYGYYYYMDVWVKGPTVIVSS VL: QSVLTQPPSVSAAPGEKVTISCSGNTTNIGNNFVAWYQHLPQNAPKLLIYEDHKRPFGIPDRFSGSKSGTSATLGISGLQTGDEADYYCQTWDAKLLIWIFGGGTKVTVL"
  binding result: "binds"
- Binder: "c6486 (antibody, V domains shown) VH: QPQMIQSGIEVKQPGAAVKVRCKPSGYWFIACGISWVRQAPGRGLEWLGWVYPYNGKVNHAQKFRGRVTLTADRSTETAYMELKSLTSDDTAIYYCARDSEQYDAAMPNYFTQYGMDVWGQGTTVIVSS VL: EIVLTQSPGTLSLSPGETAALSCRSSQAFTDKGLAWYKQRPGQPPSLFVYGVSKRAAGVPDRVTGSGSGTEYTLTIGRLEPEDSGLYFCQQYHDPARTFGQGTKLEIK"
  binding result: "binds"
